Parameter: ε. Scope: all listed entries.
Assay: Steady-state electronic absorption and fluorescence spectroscopy
Assay type: physicochemical
Conditions: extinction coefficient at λmax, toluene
Give the quantity in M⁻¹ cm⁻¹, number only.

get_value(item= CCCCCCCCN1C(=O)c2cc(CCc3ccccc3)c3c4c(c(CCc5ccccc5)cc(c24)C1=O)C(=O)N(CCCCCCCC)C3=O , readout=ε) returns 14000

* * *

E(S1) values, listed per item
Experiment: Steady-state electronic absorption and fluorescence spectroscopy
Assay type: physicochemical
Conditions: determined from the average energy of the absorption and emission maxima
Numeric only. Scale: eV

# example entries with known answers
CCCCCCCCN1C(=O)c2ccc3c4c(ccc(c24)C1=O)C(=O)N(CCCCCCCC)C3=O: 3.15
CCCCCCCCN1C(=O)c2c(CCc3ccccc3)ccc3ccc(CCc4ccccc4)c(c23)C1=O: 3.34

Recorded E(S1) (compound CCCCC(CC)CN1C(=O)c2c(CCc3ccccc3)cc3c4ccc5c6cc(CCc7ccccc7)c7c8c(c(CCc9ccccc9)cc(c9ccc(c%10cc(CCc%11ccccc%11)c(c2c3%10)C1=O)c4c59)c86)C(=O)N(CC(CC)CCCC)C7=O (centres unmarked) ): 1.90

Entry under test: CCCCC(CC)CN1C(=O)c2c(CCc3ccccc3)cc3c4cccc5cccc(c6cc(CCc7ccccc7)c(c2c36)C1=O)c54 (centres unmarked) . Its E(S1) was 2.43

Query CCCCCCCCN1C(=O)c2cccc3cccc(c23)C1=O yields E(S1) of 3.38

Lab note: measured E(S1) of CCCCC(CC)CN1C(=O)c2ccc3c4cccc5cccc(c6ccc(c2c36)C1=O)c54 (centres unmarked) was 2.38

Measured E(S1) of CCCCCCCCN1C(=O)c2c(CCc3ccccc3)cc3c4cc(CCc5ccccc5)c5c6c(c(CCc7ccccc7)cc(c7cc(CCc8ccccc8)c(c2c37)C1=O)c64)C(=O)N(CCCCCCCC)C5=O : 2.35

Reported E(S1) ( CCCCCCCCN1C(=O)c2cc(CCc3ccccc3)c3c4c(c(CCc5ccccc5)cc(c24)C1=O)C(=O)N(CCCCCCCC)C3=O ) = 3.09
